Cited source: PubChem BioAssay (NCI)

# EXPERIMENT_NOTES: NCI Yeast Anticancer Drug Screen. Data for the rad50 strain (AID 155);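 also: 0% = growth of vehicle-only cultures of the same strain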
# CONDITION_NOTES: S. cerevisiae rad50 strain growth inhibition; at 50.0 µM (retest, dose inferred, filed as 5.0)
The panel holds about 79,000 compounds, 15% with a hit somewhere; the sample as a whole holds those more often. The source made the active and inactive calls. Rule as the data show it: active = growth inhibition above about 70%; inactive = the rest.
Response enum: 1 (active), 0 (inactive)

**Q:** Hi, sorry to bother you, what did the test record for CCN(CC)c1ccc(C(=C2C=CC(=[N+](CC)CC)C=C2)c2ccc(N(CC)CC)cc2)cc1 ?
**A:** 1

**Q:** And the next one, CCCN(CCC)C(=S)N/N=C/c1ccccn1 ?
**A:** 1

**Q:** Entry to check: CCOC(=O)C(CN)(c1ccccc1)c1ccccc1
**A:** 0

**Q:** Entry Cc1ccc(S(=O)(=O)C23C(N=NC2(C)C)C3(C)C)cc1 (stereo not given) please
**A:** 0

**Q:** Also NNC(=O)c1ccc(NC(=O)CSc2nc3ccccc3s2)cc1 ?
**A:** 0

**Q:** Check CCN(C(=O)C(Cl)Cl)C(Cc1ccccc1)c1ccccc1 (stereo not given) too.
**A:** 0

**Q:** Next record, please: CCOP(=O)(OCC)C(C)(CC)NC(=O)C(C(F)(F)F)C(F)(F)F (stereo not given)
**A:** 0

**Q:** Next entry: O=[N+]([O-])Cc1cnc2nncn2n1
**A:** 1

**Q:** Same read-out for COC(=O)C#CC(=O)OC ?
**A:** 1

**Q:** What do you have for O=c1c(Cl)c(Cl)cnn1-c1ccccc1 ?
**A:** 0

**Q:** Then Cc1c2ccccc2c(C=O)c2ccccc12 ?
**A:** 1

**Q:** Consider next the compound OC1CN(Cc2ccccc2)C[C@@H]1O (stereo not given in full) in the same way.
**A:** 1

**Q:** Can you check NNc1ccc2ccccc2c1 next?
**A:** 1

**Q:** Same read-out for CCN(CC)CCNc1nc(NCCN(CC)CC)c2nc(-c3ccccc3)c(-c3ccccc3)nc2n1 ?
**A:** 1

**Q:** Next up: CCCCCCCCCCS(=O)CC(CO)NC(=O)/C=C/c1c(C)[nH]c(=O)[nH]c1=O (stereo not given)
**A:** 1

###

# EXPERIMENT_NOTES: NCI Yeast Anticancer Drug Screen. Data for the bub3 strain (AID 167)
# CONDITION_NOTES: S. cerevisiae bub3 mutant strain, at 5.0 µM (retest, dose inferred, filed as 0.5), hits give high values
This is part of a sample that, as a whole, favours compounds with a hit. Of some 79,000 tested, about 15% had one in any assay.
OBSERVATION_TYPE: growth inhibition (%)
Return type: number; implicit unit %.

**Q:** Recorded growth inhibition of Cc1c(C)c(CCl)c(C)c(C)c1CCl , please.
**A:** 14

**Q:** Also check CNC(=O)OCCN1c2ccccc2Sc2ccccc21
**A:** 0

**Q:** Next: O=NC1C(Br)C2CC1C1C(Cl)C(Cl)CC21 (stereo not drawn)
**A:** 1

**Q:** Same question, C1=C(CN2CCCCC2)COc2ccccc21 this time
**A:** 6

**Q:** Now try Cc1ccc(S(=O)(=O)Nc2cc(S(=O)(=O)O)c(N)c3c2C(=O)c2ccccc2C3=O)cc1 .
**A:** 45

**Q:** What about O=S(=O)(CC(Cl)c1ccccc1)c1nc2ccccc2s1 (stereo not drawn) ?
**A:** -30

**Q:** Try this compound next: COC(=O)c1nnn(-c2ccc(S(N)(=O)=O)cc2)c1N
**A:** -22

**Q:** # iterate: C1=C(c2ccccc2)N(CCc2ccccc2)C(c2ccccc2)=CN1Cc1ccccc1
**A:** 9
